Biological target: rat liver partially purified KAT II (Rattus norvegicus, UniProt Q64602)
Construct: rat liver partially purified KAT II; from tissue; host or cells: rat liver
Sequence (Q64602 30-425): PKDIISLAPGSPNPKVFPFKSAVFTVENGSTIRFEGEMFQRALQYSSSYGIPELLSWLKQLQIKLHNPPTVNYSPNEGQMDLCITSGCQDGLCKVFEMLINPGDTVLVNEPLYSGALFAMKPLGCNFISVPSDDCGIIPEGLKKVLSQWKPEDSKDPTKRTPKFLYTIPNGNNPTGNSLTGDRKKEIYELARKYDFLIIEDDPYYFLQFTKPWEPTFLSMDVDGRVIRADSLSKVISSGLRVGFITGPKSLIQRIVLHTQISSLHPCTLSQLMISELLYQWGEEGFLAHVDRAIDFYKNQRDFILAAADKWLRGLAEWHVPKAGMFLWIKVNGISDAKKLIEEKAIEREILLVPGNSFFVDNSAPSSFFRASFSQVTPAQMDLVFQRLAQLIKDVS
Assay: Inhibition of kynurenine aminotransferase II activity ([3H]-kynurenine to [3H]-kynurenic acid)
Assay type: biochemical
Settings: rat liver partially purified KAT II, 2 hrs at 37° C., pH 7.4, 2 μM kynurenine, 1 mM pyruvate; read-out: IC50 kynurenine aminotransferase II

compound | IC50 / µM
O=C(O)CCCCCCCCC(=O)O [n=7, R^1 = H, 1,10-decanedioic acid] | 720
NC(CC(=O)O)C(=O)O (racemic) [n=1, R^1 = NH^2, DL-2-amino-1,4-butanedioic acid] | 2460
N[C@@H](CCS(=O)O)C(=O)O [n=2, X = S02H (L), homocysteinesulfinic acid] | 224
O=C(O)CCCCCCCCCCCCCC(=O)O [n=12, R^1 = H, 1,15-pentadecanedioic acid] | 71

---

Target: rat liver partially purified KAT II (Rattus norvegicus, UniProt Q64602)
Construct: rat liver partially purified KAT II; from tissue; host or cells: rat liver
Experiment: Inhibition of kynurenine aminotransferase II activity ([3H]-kynurenine to [3H]-kynurenic acid)
Type: biochemical
Conditions: IC50 kynurenine aminotransferase II, rat liver partially purified KAT II, 2 hrs at 37° C., pH 7.4, 2 μM kynurenine, 1 mM pyruvate
pIC50: −log10 of the molar value.
value kind: pIC50

compound | measured value
NC(CCC(=O)O)C(=O)O (racemic) | 2.65
NC(CCP(=O)(O)O)C(=O)O (racemic) | 3.30
NC(CCCCCP(=O)(O)O)C(=O)O (stereo not drawn) | 2.84

---

Quick reference for IC50 among some molecules
Molecular target: rat liver partially purified KAT II (Rattus norvegicus, UniProt Q64602)
Construct: rat liver partially purified KAT II; from tissue; host or cells: rat liver
Assay: Inhibition of kynurenine aminotransferase II activity ([3H]-kynurenine to [3H]-kynurenic acid)
Assay type: biochemical
Conditions: rat liver partially purified KAT II, 2 hrs at 37° C., pH 7.4, 2 μM kynurenine, 1 mM pyruvate; read-out: IC50 kynurenine aminotransferase II

molecule | assayed target | IC50
O=C(O)CCCCCC(=O)O | rat liver partially purified KAT II (Rattus norvegicus, UniProt Q64602) | 6370 µM
O=C(O)CCCCCCCCCCCCC(=O)O | rat liver partially purified KAT II (Rattus norvegicus, UniProt Q64602) | 102 µM
NC(CCCC(=O)O)C(=O)O (racemic) | rat liver partially purified KAT II (Rattus norvegicus, UniProt Q64602) | 18 µM
O=C(O)CCCCC(=O)O | rat liver partially purified KAT II (Rattus norvegicus, UniProt Q64602) | 1290 µM
NC(CCCCCCC(=O)O)C(=O)O (racemic) | rat liver partially purified KAT II (Rattus norvegicus, UniProt Q64602) | 355 µM
NC(CCCCCCCCCCCCCCC(=O)O)C(=O)O (racemic) | rat liver partially purified KAT II (Rattus norvegicus, UniProt Q64602) | 85 µM
O=C(O)CCCCCCCCCCCC(=O)O | rat liver partially purified KAT II (Rattus norvegicus, UniProt Q64602) | 170 µM
O=C(O)CCCCCCCCCC(=O)O | rat liver partially purified KAT II (Rattus norvegicus, UniProt Q64602) | 234 µM

---

Quick reference for IC50 among some compounds
Biological target: rat liver partially purified KAT II (Rattus norvegicus, UniProt Q64602)
Construct: rat liver partially purified KAT II; from tissue; host or cells: rat liver
Assay: Inhibition of kynurenine aminotransferase II activity ([3H]-kynurenine to [3H]-kynurenic acid)
Type: biochemical
Conditions: rat liver partially purified KAT II, 2 hrs at 37° C., pH 7.4, 2 μM kynurenine, 1 mM pyruvate; read-out: IC50 kynurenine aminotransferase II

compound | assayed target | unit tag | IC50
O=C(O)CCCCCCCCCCCCCCCO [n = 13, R1, R2 = H, X = CH2OH, 16-hydroxyhexadecanoic acid] | rat liver partially purified KAT II (Rattus norvegicus, UniProt Q64602) | µM | 149
NC(CCCCCCCCCCC(=O)O)C(=O)O (racemic) | rat liver partially purified KAT II (Rattus norvegicus, UniProt Q64602) | µM | 7
NC(CCS(=O)(=O)O)C(=O)O (centres unmarked) | rat liver partially purified KAT II (Rattus norvegicus, UniProt Q64602) | µM | 63
NC(CCCP(=O)(O)O)C(=O)O (racemic) | rat liver partially purified KAT II (Rattus norvegicus, UniProt Q64602) | µM | 1000
N[C@@H](CS(=O)O)C(=O)O [n=1, X = S02H (L), cysteinesulfinic acid] | rat liver partially purified KAT II (Rattus norvegicus, UniProt Q64602) | µM | 1150
CC(N)(CCCCCCCCCCCCCC(=O)O)C(=O)O (racemic) | rat liver partially purified KAT II (Rattus norvegicus, UniProt Q64602) | µM | 53.7
NC(CCCCCCCCCC(=O)O)C(=O)O (racemic) | rat liver partially purified KAT II (Rattus norvegicus, UniProt Q64602) | µM | 8
O=C(O)CCCCCCCC(=O)O | rat liver partially purified KAT II (Rattus norvegicus, UniProt Q64602) | µM | 4580
NC(CS(=O)(=O)O)C(=O)O (centres unmarked) | rat liver partially purified KAT II (Rattus norvegicus, UniProt Q64602) | µM | 739
NC(CCCCC(=O)O)C(=O)O (racemic) | rat liver partially purified KAT II (Rattus norvegicus, UniProt Q64602) | µM | 14
CNC(CCCCCCCCCCCCCC(=O)O)C(=O)O (racemic) | rat liver partially purified KAT II (Rattus norvegicus, UniProt Q64602) | µM | 29.3
O=C(O)CCCCCCCCCCC(=O)O | rat liver partially purified KAT II (Rattus norvegicus, UniProt Q64602) | µM | 256
NC(CCCCCCCCC(=O)O)C(=O)O (racemic) | rat liver partially purified KAT II (Rattus norvegicus, UniProt Q64602) | µM | 7
O=C(O)CCCCCCCCCCCCCCC(=O)O | rat liver partially purified KAT II (Rattus norvegicus, UniProt Q64602) | µM | 60
